compounds and their reported PMM Primary Mouse Macrophages (inf-LMPH) (cytotoxicity)
System: primary mouse macrophages (PMMs)
Test: Host cell cytotoxicity in primary mouse macrophages (PMM)
Type: cell-based
Settings: CSV supplement; decimal comma

Consider the reported PMM Primary Mouse Macrophages (inf-LMPH) (cytotoxicity) for these compounds:
{"columns": ["Smiles Text", "Reading"],
 "data": [
  ["CC(C)(C)OC(=O)N[C@H]1Cc2ccc(cc2)Oc2ccc(cc2NC(=O)c2ccccn2)CCNC(=O)[C@H](Cc2ccccc2)NC1=O", "16,0 µM"],
  ["CC(=O)Nc1cc2ccc1Oc1ccc(cc1)C[C@H](NC(=O)OC(C)(C)C)C(=O)N[C@@H](Cc1ccccc1)C(=O)NCC2=O", ">64 µM"],
  ["CC(C)C[C@@H]1NC(=O)[C@@H](NC(=O)OC(C)(C)C)Cc2ccc(cc2)Oc2ccc(cc2NC(=O)c2ccccn2)C(=O)CNC1=O", ">64 µM"],
  ["COc1ccc(C[C@H](NC(=O)OC(C)(C)C)C(=O)N[C@@H](Cc2ccccc2)C(=O)NCC(=O)c2cccc(NC(=O)c3ccccn3)c2)cc1", ">64 µM"],
  ["CC(=O)N[C@H]1Cc2ccc(cc2)Oc2ccc(cc2NC(=O)c2ccccn2)C(=O)CNC(=O)[C@H](Cc2ccccc2)NC1=O", ">64 µM"]
]}

Ask: Consider the compound "CC(C)(C)OC(=O)N[C@H]1Cc2ccc(cc2)Oc2ccc(cc2NC(=O)c2ccccn2)C(=O)CNC(=O)[C@H](c2ccccc2)NC1=O" . State its measured PMM Primary Mouse Macrophages (inf-LMPH) (cytotoxicity).
Result: >64 µM

Ask: Using known records, supply PMM Primary Mouse Macrophages (inf-LMPH) (cytotoxicity) for "CC(C)(C)OC(=O)N[C@H]1Cc2ccc(cc2)Oc2ccc(cc2NC(=O)c2ccccn2)C(=O)CNC(=O)[C@@H](Cc2ccccc2)NC1=O"
Result: >64 µM

Values from paper PMC11513892
